Recorded below: log10(Ki), system UniProt:P06276.
Sequence (P06276 29-602): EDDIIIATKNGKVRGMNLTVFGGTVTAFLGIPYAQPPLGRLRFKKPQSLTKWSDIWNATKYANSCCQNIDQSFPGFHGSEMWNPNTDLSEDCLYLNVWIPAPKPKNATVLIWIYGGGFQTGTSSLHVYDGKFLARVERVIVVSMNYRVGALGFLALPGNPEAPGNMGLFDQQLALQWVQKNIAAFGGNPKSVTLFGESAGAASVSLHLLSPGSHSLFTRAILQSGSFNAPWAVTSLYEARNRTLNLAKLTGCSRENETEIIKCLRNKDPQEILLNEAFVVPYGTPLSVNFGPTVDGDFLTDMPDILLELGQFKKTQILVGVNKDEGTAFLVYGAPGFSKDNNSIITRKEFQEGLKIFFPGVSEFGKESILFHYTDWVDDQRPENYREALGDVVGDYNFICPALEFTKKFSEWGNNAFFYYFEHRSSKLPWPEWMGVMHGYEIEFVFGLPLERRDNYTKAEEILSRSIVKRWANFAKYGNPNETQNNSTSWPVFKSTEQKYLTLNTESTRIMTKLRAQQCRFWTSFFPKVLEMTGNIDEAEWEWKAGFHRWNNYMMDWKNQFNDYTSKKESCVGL
assayMetric: log10(Ki) (log10 of the value in µM)

• CC(C)N(C(=O)c1ccc(=O)[nH]c1)C(C)C = 3.16
• CCN(CC)Cc1ccc(=O)[nH]c1 = 3.59
• O=C(NC1CCCCC1)c1ccc(=O)[nH]c1 = 2.14
• O=C(c1ccc(=O)[nH]c1)N(Cc1ccccc1)Cc1ccccc1 = 1.57
• CCN(CC)C(=O)c1ccc(=O)[nH]c1 = 3.11

* * *

Recorded below: pKi, system human AChE (Homo sapiens, UniProt P22303).
pKi: −log10 of the molar value.
assayMetric: pKi

* O=C(c1ccc(=O)[nH]c1)N(Cc1ccccc1)Cc1ccccc1 | 3.59
* CC(C)N(C(=O)c1ccc(=O)[nH]c1)C(C)C | 3.88
* CCN(CC)Cc1ccc(=O)[nH]c1 | 2.32
* CCN(CC)C(=O)c1ccc(=O)[nH]c1 | 2.12

These entries and their values trace back to patent US6544986B2.
